B1: tRNA (parent)
chain: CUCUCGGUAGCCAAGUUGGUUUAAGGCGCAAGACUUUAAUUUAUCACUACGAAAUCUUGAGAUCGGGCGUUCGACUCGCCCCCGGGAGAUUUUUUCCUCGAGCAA

Variants of: B1
TEST SUMMARY: nonsense suppression (GFP-seq) (ratio to wild type); higher = more function; SUP4oc tRNA, yeast GFP reporter sort-seq
Fewer inactive variants are shown than the library holds.

CHANGE	LIMIT OPERATOR	nonsense suppression
A9G G73U	=	0.053
C68G G69A	≤	0.026
U17C G88U	≤	0.026
A9C U63C	=	0.202
U8C C81G	≤	0.026
G10A C64G	≤	0.026
C12U G19U U57C C77A A89U	≤	0.026
G28C U76C	=	0.799
C12U U70A	=	0.048
C3U U8G U58G C80A C82G G86C	≤	0.026
G15A G26U U55A	≤	0.026
U21A C83G G88U	≤	0.026
C11A U63G	≤	0.026
G25U U58G C68G	≤	0.026
A33U U55G	=	0.167
G26C G61A	≤	0.026
G19A G26U C27G	≤	0.026
A13G C80U	=	0.0419
C72U C80A A87C	=	0.714
A13C G61U C68U	=	0.414
U4A A24U	=	0.0458
U71G C72U	≤	0.026

Data provenance is the RNAGym collection of RNA variant scans (doi:10.1101/gad.245936.114).
